# Target or test system: CyclinA2/CDK2 (Homo sapiens, UniProt P20248)
# Construct: purchased CRELUX Protein Services
# Protocol: Fluorescence Polarization (FP) competitive binding assay, Cyclin A2/Cdk2;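 note: plates equilibrated two hours at room temperature before polarization reading, IC50 fitted from eight-concentration compound titration curves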
# Details: 8 nM Cyclin A2/Cdk2, 2 nM FAM probe; average of 2-3 independent experiments; read-out: Cyclin A FP IC50
*1 amine or outer side, *2 acyl side, *3 side chain or, on linkers, in order; H or OH if unused. Where a SMILES comes first, the peptide text is derived from it. Bridges are numbered along the chain shown (N, C = ends). [ ]: non-standard residue; d: D form. The star is where a group is joined. X74 = C[C@@H]1CN(c2ccc(-c3ccc(Cl)cc3C[C@@H](C(=O)[*:2])N(C)[*:1])cc2)C[C@@H](C)O1; NMePhe(2-(4-MorPh),5-Cl) = CN[C@@H](Cc1cc(Cl)ccc1-c1ccc(N2CCOCC2)cc1)C(=O)O; X45 = CN1CCC(F)(c2ccc(-c3ccc(Cl)cc3C[C@@H](C(=O)[*:2])N(C)[*:1])cc2)CC1; X100 = CC(=O)NC1CC=C(c2ccc(Cl)cc2C[C@@H](C(=O)[*:2])N(C)[*:1])CC1; NMehhhLys(Me) = CN([C@@H](CCCCCCCN(C)[*:3])C(=O)[*:2])[*:1]; X5 = CN([C@@H](Cc1cc(Cl)ccc1-c1cnn2c1OCCC2)C(=O)[*:2])[*:1]; X159 = CN([C@@H](Cc1cc(Cl)cnc1Oc1cnn(C)c1)C(=O)[*:2])[*:1]; NMe(hhhLys) = CN([C@@H](CCCCCCCN[*:3])C(=O)[*:2])[*:1]; X210 = CC(C)=Cc1ccc(Cl)cc1C[C@@H](C(=O)[*:2])N(C)[*:1]; X28 = CN([C@@H](Cc1cc(Cl)cnc1OC1CCC1)C(=O)[*:2])[*:1]; Cyclobutanecarbonyl(1-CF3) = O=C(C1(C(F)(F)F)CCC1)*; cBuCO(3,3-F2-1-CF3) = O=C(C1(C(F)(F)F)CC(F)(F)C1)*; X133 = Cc1ncc(Cl)cc1C[C@@H](C(=O)[*:2])N(C)[*:1]; Pro(trans-4-F) = O=C(O)[C@@H]1C[C@@H](F)CN1; Gly(cPr) = N[C@H](C(=O)O)C1CC1; X9 = C[C@@]1(C(=O)*)CC1(F)F
Kindly supply the reported log10 IC50 values for the records listed here.
Please note: log10 values; quantity IC50; unit nM.

Worked cases, log10 IC50 given:
[[record]]
molecule = "CC(=O)NC1CC=C(c2ccc(Cl)cc2C[C@H]2C(=O)N(C)CCCCCCC[C@H](N(C)C(=O)[C@@H](NC(=O)[C@@H]3C[C@@H](F)CN3C(=O)C3(C(F)(F)F)CC(F)(F)C3)C3CC3)C(=O)N[C@@H](CC(C)C)C(=O)N2C)CC1 (stereo partly drawn) [Example 60] ({cBuCO(3,3-F2-1-CF3)}-[Pro(trans-4-F)][Gly(cPr)][NMehhhLys(Me)]L[X100]; lactam 3-C)"
readout_number = 1.30

[[record]]
molecule = "CC(C)=Cc1ccc(Cl)cc1C[C@H]1C(=O)NCCCCCCC[C@H](N(C)C(=O)[C@@H](NC(=O)[C@@H]2C[C@@H](F)CN2C(=O)C2(C(F)(F)F)CC(F)(F)C2)C2CC2)C(=O)N[C@@H](CC(C)C)C(=O)N1C [Example 62] ({cBuCO(3,3-F2-1-CF3)}-[Pro(trans-4-F)][Gly(cPr)][NMe(hhhLys)]L[X210]; lactam 3-C)"
readout_number = 1.48

[[record]]
molecule = "CC(C)C[C@@H]1NC(=O)[C@@H](N(C)C(=O)[C@@H](NC(=O)[C@@H]2C[C@@H](F)CN2C(=O)C2(C(F)(F)F)CCC2)C2CC2)CCCCCCCNC(=O)[C@H](Cc2cc(Cl)cnc2OC2CCC2)N(C)C1=O [Example 141] ({Cyclobutanecarbonyl(1-CF3)}-[Pro(trans-4-F)][Gly(cPr)][NMe(hhhLys)]L[X28]; lactam 3-C)"
readout_number = 1.60

[[record]]
molecule = "CC(C)C[C@@H]1NC(=O)[C@@H](N(C)C(=O)[C@@H](NC(=O)[C@@H]2C[C@@H](F)CN2C(=O)C2(C(F)(F)F)CC(F)(F)C2)C2CC2)CCCCCCCN(C)C(=O)[C@H](Cc2cc(Cl)ccc2-c2ccc(N3C[C@@H](C)O[C@H](C)C3)cc2)N(C)C1=O [Example 389] ({cBuCO(3,3-F2-1-CF3)}-[Pro(trans-4-F)][Gly(cPr)][NMehhhLys(Me)]L[X74]; lactam 3-C)"
readout_number = 1.30

[[record]]
molecule = "CC(C)C[C@@H]1NC(=O)[C@@H](N(C)C(=O)[C@@H](NC(=O)[C@@H]2C[C@@H](F)CN2C(=O)C2(C(F)(F)F)CC(F)(F)C2)C2CC2)CCCCCCCN(C)C(=O)[C@H](Cc2cc(Cl)ccc2-c2cnn3c2OCCC3)N(C)C1=O [Example 191] ({cBuCO(3,3-F2-1-CF3)}-[Pro(trans-4-F)][Gly(cPr)][NMehhhLys(Me)]L[X5]; lactam 3-C)"
readout_number = 1.30


State recorded log10 IC50 for all listed molecules.
1. CC(C)C[C@@H]1NC(=O)[C@@H](N(C)C(=O)[C@@H](NC(=O)[C@@H]2C[C@@H](F)CN2C(=O)C2(C(F)(F)F)CC(F)(F)C2)C2CC2)CC=CCCCCN(C)C(=O)[C@H](Cc2cc(F)ccc2-c2cncnc2)N(C)C1=O
2. CC(C)C[C@@H]1NC(=O)[C@@H](N(C)C(=O)[C@@H](NC(=O)[C@@H]2C[C@@H](F)CN2C(=O)C2(C(F)(F)F)CC(F)(F)C2)C2CC2)CCCCCCCN(C)C(=O)[C@H](Cc2cc(Cl)ccc2-c2ccc(C3(F)CCN(C)CC3)cc2)N(C)C1=O [Example 370] ({cBuCO(3,3-F2-1-CF3)}-[Pro(trans-4-F)][Gly(cPr)][NMehhhLys(Me)]L[X45]; lactam 3-C)
3. Cc1ncc(Cl)cc1C[C@H]1C(=O)N(C)CCCCCCC[C@H](N(C)C(=O)[C@@H](NC(=O)[C@@H]2C[C@@H](F)CN2C(=O)C2(C(F)(F)F)CC(F)(F)C2)C2CC2)C(=O)N[C@@H](CC(C)C)C(=O)N1C [Example 322] ({cBuCO(3,3-F2-1-CF3)}-[Pro(trans-4-F)][Gly(cPr)][NMehhhLys(Me)]L[X133]; lactam 3-C)
4. CC(C)C[C@@H]1NC(=O)[C@@H](N(C)C(=O)[C@@H](NC(=O)[C@@H]2C[C@@H](F)CN2C(=O)C2(C(F)(F)F)CC(F)(F)C2)C2CC2)CCCCCCCN(C)C(=O)[C@H](Cc2cc(Cl)cnc2Oc2cnn(C)c2)N(C)C1=O [Example 323] ({cBuCO(3,3-F2-1-CF3)}-[Pro(trans-4-F)][Gly(cPr)][NMehhhLys(Me)]L[X159]; lactam 3-C)
5. CC(C)C[C@@H]1NC(=O)[C@@H](N(C)C(=O)[C@@H](NC(=O)[C@@H]2C[C@@H](F)CN2C(=O)[C@]2(C)CC2(F)F)C2CC2)CCCCCCCN(C)C(=O)[C@H](Cc2cc(Cl)ccc2-c2ccc(N3CCOCC3)cc2)N(C)C1=O [Example 399] (X9-[Pro(trans-4-F)][Gly(cPr)][NMehhhLys(Me)]L[NMePhe(2-(4-MorPh),5-Cl)]; lactam 3-C)
6. CC(C)C[C@@H]1NC(=O)[C@@H](N(C)C(=O)[C@@H](NC(=O)[C@@H]2C[C@@H](F)CN2C(=O)C2(C(F)(F)F)CC2)C2CC2)CC=CCCCCNC(=O)[C@H](Cc2cc(Cl)ccc2Cl)N(C)C1=O (single isomer, unassigned) [Example 5-P2]
7. CC(C)C[C@@H]1NC(=O)[C@@H](N(C)C(=O)[C@@H](NC(=O)[C@@H]2C[C@@H](F)CN2C(=O)C2(C(F)(F)F)CCC2)C2CC2)CC=CCCCCN(C)C(=O)[C@H](Cc2cc(Cl)ccc2-c2cncnc2)N(C)C1=O

[2.26, 1.30, 1.90, 1.48, 1.85, 2.75, 2.08]

Origin of the recorded values: patent US20240408169A1
